Molecular target: serotonin transporter (Rattus norvegicus)
Construct: frontal cortical membranes prepared from male Sprague-Dawley rats; from tissue; host or cells: frontal cortex membranes of male Sprague-Dawley rats
Sequence (P31652 whole entry): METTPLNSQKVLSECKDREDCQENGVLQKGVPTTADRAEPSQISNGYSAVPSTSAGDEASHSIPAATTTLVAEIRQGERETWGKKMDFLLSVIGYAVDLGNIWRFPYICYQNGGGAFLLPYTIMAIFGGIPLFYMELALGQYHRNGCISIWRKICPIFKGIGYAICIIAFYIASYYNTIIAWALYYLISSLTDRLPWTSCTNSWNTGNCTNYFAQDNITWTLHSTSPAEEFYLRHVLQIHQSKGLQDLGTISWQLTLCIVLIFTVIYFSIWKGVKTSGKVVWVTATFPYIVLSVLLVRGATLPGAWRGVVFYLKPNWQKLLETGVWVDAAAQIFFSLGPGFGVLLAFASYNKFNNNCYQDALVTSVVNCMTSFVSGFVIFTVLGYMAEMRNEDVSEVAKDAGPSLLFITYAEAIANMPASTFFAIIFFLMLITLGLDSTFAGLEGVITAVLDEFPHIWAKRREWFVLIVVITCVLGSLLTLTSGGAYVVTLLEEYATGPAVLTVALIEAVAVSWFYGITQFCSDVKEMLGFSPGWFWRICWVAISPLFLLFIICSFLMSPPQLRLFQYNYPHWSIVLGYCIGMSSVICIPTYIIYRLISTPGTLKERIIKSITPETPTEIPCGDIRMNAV
Experiment: Serotonin transporter affinity, 3H-paroxetine binding to frontal cortical membranes
Set-up: species or system Sprague-Dawley rats
Details: 3H-paroxetine 0.1 nM, head also allows % Inh. @.1 µM, read-out: ST (Ki, nM, % Inh. @.1 µM)
Strictly below 30 nM in Ki: true (1). Otherwise: false (0).

input: Quick check: does CCCN1CC(CNCCCc2c[nH]c3ccc(F)cc23)Oc2ccccc21 (stereo not drawn) [Example 14] have Ki under 30 nM?
output: true (1)

input: Consider CN1CC(CNCCCc2c[nH]c3ccc(F)cc23)Oc2cc(Cl)ccc21 (stereo not drawn) [Example 15] . Does its Ki lie strictly below 30 nM?
output: false (0)

The measurements presented in this section are drawn from patent EP1140925B1.
